Test system: Amaranthus retroflexus
Test: Herbicidal pre-emergence action
Type: in vivo
Conditions: 1280 g/ha, visual grading after ca. 3 weeks vs untreated controls
reported_endpoint: herbicidal effect AMARE

>>> value_measured("O=C(Nc1ncns1)c1nc(Cl)ccc1OC(F)(F)F")
"100%"
>>> value_measured("O=C(Nc1ncns1)c1ncc(Cl)cc1C(F)(F)F")
"90%"
>>> value_measured("O=C(Nc1ncns1)c1nc(Cl)ccc1Br")
"100%"

Continue with the next compound.
Task: For the compound O=C(Nc1nc(Cl)ns1)c1nc(F)ccc1Br , what herbicidal effect AMARE is on record?
Output: 100%
